The origin of these recorded values is patent US20260098072A1.

Molecular target: human MC4R (Homo sapiens, UniProt P32245)
Construct: expressed in transfected cells; host or cells: HEK293/MC4R/CRE-GFP
Sequence (P32245 whole entry): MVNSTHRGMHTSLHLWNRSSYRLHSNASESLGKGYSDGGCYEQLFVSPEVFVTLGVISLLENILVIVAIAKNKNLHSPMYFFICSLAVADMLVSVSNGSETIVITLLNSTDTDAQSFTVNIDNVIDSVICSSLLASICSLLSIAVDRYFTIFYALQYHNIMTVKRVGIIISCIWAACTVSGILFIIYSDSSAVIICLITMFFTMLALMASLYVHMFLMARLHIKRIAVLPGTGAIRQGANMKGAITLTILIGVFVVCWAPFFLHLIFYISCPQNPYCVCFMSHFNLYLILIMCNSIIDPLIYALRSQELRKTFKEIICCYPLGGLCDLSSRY
Assay: cAMP accumulation assay (HTRF), antagonist activity at MC4R
Assay type: cell-based
Details: dose-response fit, MC4R
Positions of bridges follow the written chain, without caps; N, C: chain ends. Non-standard residues stand in square brackets, D forms with d. No end group written: not given here. Nle = CCCC[C@H](N)C(=O)O
MEASURED ENDPOINT: Top (%)

Ac-Leu-c(Asp-Pro-Phe-Phe-Arg-Trp-Lys)-Val-Pro-NH2 (Ac-LDPFFRWKVP-NH2; lactam 2-8; SMILES CC(=O)N[C@@H](CC(C)C)C(=O)N[C@H]1CC(=O)NCCCC[C@@H](C(=O)N[C@H](C(=O)N2CCC[C@H]2C(N)=O)C(C)C)NC(=O)[C@H](Cc2c[nH]c3ccccc23)NC(=O)[C@H](CCCNC(=N)N)NC(=O)[C@H](Cc2ccccc2)NC(=O)[C@H](Cc2ccccc2)NC(=O)[C@@H]2CCCN2C1=O) [Peptide B2]	729.66
IDPFFRWKVP [Peptide B8]	20.03
Ac-Nle-c(Asp-Pro-Trp-Arg-Trp-Lys)-Dval-Dpro-NH2 (Ac-[Nle]DPWRWK[dV][dP]-NH2; lactam 2-7; SMILES CCCC[C@H](NC(C)=O)C(=O)N[C@H]1CC(=O)NCCCC[C@@H](C(=O)N[C@@H](C(=O)N2CCC[C@@H]2C(N)=O)C(C)C)NC(=O)[C@H](Cc2c[nH]c3ccccc23)NC(=O)[C@H](CCCNC(=N)N)NC(=O)[C@H](Cc2c[nH]c3ccccc23)NC(=O)[C@@H]2CCCN2C1=O) [Peptide C1]	51.32

a: VPFFRWVP [Peptide B6]
b: LPFFRWVP [Peptide B4]
c: LDPWRWKVP [Peptide C7]
d: Leu-c(Asp-Pro-Trp-Arg-Trp-Lys)-Val-Pro (LDPWRWKVP; lactam 2-7) [Peptide C3]
Query: Put the substances in ascending order of Top (%). # format: label list in the order the request specifies
Result: c, d, b, a
